# System: Haemophilus parainfluenzae
# test method notes: growth AUC normalised to DMSO control (fraction of control); higher = less growth inhibition, active = hit call of the paper
# settings: 20 µM
Counter-ions that a name gives are not always drawn.
Assign growth AUC normalised to DMSO control to each entry below.
Give bare numbers.

Worked examples, 2 compounds total:
compound: COc1ccc(C(CN(C)C)C2(O)CCCCC2)cc1 (stereo unspecified)
tested on: Haemophilus parainfluenzae
growth AUC normalised to DMSO control: 1.33
--
compound: COc1ccc2cc([C@H](C)C(=O)O)ccc2c1 [(S)-Naproxen]
tested on: Haemophilus parainfluenzae
growth AUC normalised to DMSO control: 1

Hey, quick one: what's growth AUC normalised to DMSO control for each of these?
1. C[C@H](CCC(=O)O)[C@H]1CC[C@H]2[C@@H]3[C@H](O)C[C@@H]4C[C@H](O)CC[C@]4(C)[C@H]3CC[C@]12C
2. CC(=O)CC(c1ccccc1)c1c(O)c2ccccc2oc1=O (stereo unspecified)
3. CCOC(=O)OC(C)OC(=O)[C@@H]1N2C(=O)[C@@H](NC(=O)[C@H](N)c3ccccc3)[C@H]2SC1(C)C (stereo partly specified) [Bacampicillin hydrochloride]
4. CCCOc1cc(N)ccc1C(=O)OCCN(CC)CC [Propoxycaine hydrochloride]

OUT:
1: 0.95; 2: 1.02; 3: 0.0618; 4: 1.04

Data provenance is the supplement of paper PMC12350171.
